- test-details: qHTS assay to identify small molecule antagonists of the constitutive androstane receptor (CAR) signaling pathway - cell viability counter screen (AID 1224837); note: nearly all actives have a fitted effect of over 45% in size
- measurement-parameters: HepG2-CYP2B6-hCAR viability, CellTiter-Fluor, 23 h, co-treated with 50 nM CITCO; series mostly up to 92.4 µM
Inconclusive results are not listed. Activity calls are given as the source filed them. Calls come from the whole dose curve; as a rule, active = well fitted cell-killing curve with a large enough effect in the repeat runs; inconclusive = weak or mixed curves, or effect the other way; inactive = flat fitted curve, though single readings scatter.
Please answer using one outcome listed in Yes = active, No = inactive

These solved cases illustrate the format of a correct answer.
| compound | label |
| --- | --- |
| COC(=O)[C@H]1[C@H]2C[C@@H]3c4[nH]c5cc(OC)ccc5c4CCN3C[C@H]2C[C@@H](OC(=O)/C=C/c2ccc(O)c(OC)c2)[C@@H]1OC | No |
| Cc1ccco1 | No |
| C/C=C/C=C/C=O | No |
| CN1C(=O)c2ccccc2C1=O | No |
| CNC(=O)c1cnn(-c2nc(N)c3ncn([C@@H]4O[C@H](CO)[C@@H](O)[C@H]4O)c3n2)c1 | No |
| C=C(C)C(=O)OCCCCCCCCCCCCC | No |
| CN(C(=O)CN(CCO)CC(=O)N(C)C(C)(C)Cc1ccccc1)C(C)(C)Cc1ccccc1 | No |
| NNC(=O)CP(=O)(c1ccccc1)c1ccccc1 | No |

**Query** Kindly provide the recorded test outcome for the following compound: "O=C1Cc2cc(Cl)ccc2N1"
**Result** No

**Query** What did this assay record as the result for "C=COCC(C)C" ?
**Result** No

**Query** Identify the outcome logged in this assay for the compound shown: "Cc1ccc(CO)cc1"
**Result** No

**Query** What did the test return for "CCCCCCNC(=O)n1cc(F)c(=O)[nH]c1=O" ?
**Result** No

**Query** Per the records of this test, what outcome belongs to "COc1ccccc1NC(=O)c1cc2ccccc2cc1O" ?
**Result** No

**Query** What classification did "CO/N=C(/C(=O)N[C@@H]1C(=O)N2C(C(=O)O)=C(COC(N)=O)CS[C@H]12)c1ccco1" end up with in this test?
**Result** No

**Query** Short answer needed: outcome of this test for "CC1=C(CC=O)C(C)(C)CCC1" ?
**Result** No
